FYI, the data here is from ChEMBL document CHEMBL1125987.

Tested on: Rattus norvegicus
Procedure text: In vivo inhibition of L-uM/Kg
Type: functional
Experimental endpoint: Activity

Data request: Requested read-out: Activity. Entry: `CCCN(CCC)[C@H]1CCc2cccc(O)c2C1`
Data returned: 112 ng (g of tissue)-1

Data request: Requested read-out: Activity. Entry: `CCCN(CCC)[C@@H]1CCc2cccc(C(C)=O)c2C1`
Data returned: 111 ng (g of tissue)-1

Data request: Requested read-out: Activity. Entry: `CCCN(CCC)[C@@H]1CCc2cccc(O)c2C1`
Data returned: 102 ng (g of tissue)-1

Data request: Requested read-out: Activity. Entry: `CCCN(CCC)[C@H]1CCc2cccc(C(C)=O)c2C1`
Data returned: 89 ng (g of tissue)-1
